- method: NCI Yeast Anticancer Drug Screen. Data for the rad18 strain (AID 177)
- experimental-conditions: S. cerevisiae rad18 mutant growth inhibition; at 3.7 µM; stronger effect = higher value
This is part of a sample that, as a whole, favours compounds with a hit. Of some 79,000 tested, about 15% had one in any assay.
# growth inhibition listing for each entry below
The reply should contain only the number, in %.

Would you please look over these solved cases?
[
  {
    "compound": "CC(=O)NC(c1nc2cc(C)c(C)cc2[nH]1)c1nc2cc(C)c(C)cc2[nH]1",
    "units": "%",
    "measured-number": 1
  },
  {
    "compound": "Cc1c2c(nc3ccccc13)C(=O)c1cccnc1C2=O",
    "units": "%",
    "measured-number": -5
  },
  {
    "compound": "CC(C)[Si]1(C(C)C)OCC2OC(n3cnc4c(N)ncnc43)C(N)C2O[Si](C(C)C)(C(C)C)O1 (stereo unspecified)",
    "units": "%",
    "measured-number": 2
  },
  {
    "compound": "c1ccc([P+](CCN2Cc3ccccc3C2)(c2ccccc2)c2ccccc2)cc1",
    "units": "%",
    "measured-number": 71
  },
  {
    "compound": "Cc1cc(O)c(C(C)C)cc1SC#N",
    "units": "%",
    "measured-number": 2
  }
]

*Q* Please look up its growth inhibition: O=C(NNc1ccccc1)C(CCCCNS(=O)(=O)Cc1ccccc1)NS(=O)(=O)Cc1ccccc1 (stereo unspecified)
*A* 19
